The following molecules are shown together with reported IC50 values.
Target: DNA gyrase subunit B (Staphylococcus aureus)

Reference set (5 entries):
| COMPOUND SMILES | ASSAY READOUT | RESULT |
| --- | --- | --- |
| COC(=O)CCC(=O)Nc1ccc2nc(NC(=O)c3cc(Cl)c(Cl)[nH]3)sc2c1 | IC50 | > 100 µM |
| COC(=O)CCC(=O)Nc1nc2ccc(NC(=O)c3cc(Br)c(Br)[nH]3)cc2s1 | IC50 | > 100 µM |
| CCOC(=O)C(=O)Nc1ccc2nc(NC(=O)c3cc(Cl)c(Cl)[nH]3)sc2c1 | IC50 | > 100 µM |
| O=C(O)CC(=O)Nc1ccc2nc(NC(=O)c3cc(Cl)c(Cl)[nH]3)sc2c1 | IC50 | 8.5 µM |
| COC(=O)CCC(=O)Nc1ccc2nc(NC(=O)c3cc(Br)c(Br)[nH]3)sc2c1 | IC50 | > 100 µM |

Req: # lookup: IC50 of COC(=O)CC(=O)Nc1nc2ccc(NC(=O)c3cc(Br)c(Br)[nH]3)cc2s1
Resp: > 100 µM

Req: Note, next up: Nc1ccc2nc(NC(=O)c3cc(Cl)c(Cl)[nH]3)sc2c1
Resp: > 100 µM

Req: Can you check CCOC(=O)C(=O)Nc1nc2ccc(NC(=O)c3cc(Cl)c(Cl)[nH]3)cc2s1 next?
Resp: > 100 µM

---

pIC50: −log10 of the molar value.
DNA gyrase subunit B (Staphylococcus aureus, UniProt P0A0K8) pIC50 data
Sequence (P0A0K8 whole entry): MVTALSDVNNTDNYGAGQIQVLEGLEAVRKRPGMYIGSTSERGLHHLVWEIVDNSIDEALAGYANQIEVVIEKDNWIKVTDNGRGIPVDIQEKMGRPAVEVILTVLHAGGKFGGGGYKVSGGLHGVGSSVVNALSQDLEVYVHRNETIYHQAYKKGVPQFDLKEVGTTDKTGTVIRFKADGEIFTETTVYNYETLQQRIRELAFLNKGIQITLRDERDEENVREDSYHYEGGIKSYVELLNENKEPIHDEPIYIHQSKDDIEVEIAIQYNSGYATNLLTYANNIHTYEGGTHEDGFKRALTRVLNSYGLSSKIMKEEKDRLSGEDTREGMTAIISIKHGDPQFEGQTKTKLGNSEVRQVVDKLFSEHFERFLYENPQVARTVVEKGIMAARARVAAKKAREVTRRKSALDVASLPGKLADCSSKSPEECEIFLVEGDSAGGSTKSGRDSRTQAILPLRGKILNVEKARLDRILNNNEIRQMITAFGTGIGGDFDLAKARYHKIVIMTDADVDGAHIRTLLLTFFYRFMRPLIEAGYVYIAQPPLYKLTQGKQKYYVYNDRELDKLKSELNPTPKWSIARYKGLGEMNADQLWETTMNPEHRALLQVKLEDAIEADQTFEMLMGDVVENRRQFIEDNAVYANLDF

Worked examples, 2 compounds total:
| COMPOUND SMILES | pIC50 |
| --- | --- |
| COC(=O)CC(=O)Nc1nc2ccc(NC(=O)c3cc(Cl)c(Cl)[nH]3)cc2s1 | < 4.00 |
| Nc1ccc2nc(NC(=O)c3cc(Br)c(Br)[nH]3)sc2c1 | < 4.00 |

Req: // pIC50 lookup, key: CCOC(=O)C(=O)Nc1ccc2nc(NC(=O)c3cc(Br)c(Br)[nH]3)sc2c1
Resp: < 4.00

Req: What about O=C(O)CCC(=O)Nc1ccc2nc(NC(=O)c3cc(Cl)c(Cl)[nH]3)sc2c1 ?
Resp: 4.03

Req: For O=C(O)CCC(=O)Nc1nc2ccc(NC(=O)c3cc(Br)c(Br)[nH]3)cc2s1 then?
Resp: < 4.00

Req: Another compound: O=C(O)CC(=O)Nc1ccc2nc(NC(=O)c3cc(Br)c(Br)[nH]3)sc2c1
Resp: 5.25

Req: And COC(=O)CC(=O)Nc1ccc2nc(NC(=O)c3cc(Br)c(Br)[nH]3)sc2c1 ?
Resp: < 4.00

Req: // next record COC(=O)CC(=O)Nc1ccc2nc(NC(=O)c3cc(Cl)c(Cl)[nH]3)sc2c1
Resp: < 4.00

---

Target: DNA gyrase subunit B (Staphylococcus aureus)
pIC50: −log10 of the molar value.
# pIC50 annotations

Examples with answers:
| COMPOUND SMILES | ASSAY READOUT | RESULT |
| --- | --- | --- |
| CCOC(=O)C(=O)Nc1nc2ccc(NC(=O)c3cc(Br)c(Br)[nH]3)cc2s1 | pIC50 | < 4.00 |
| O=C(O)C(=O)Nc1nc2ccc(NC(=O)c3cc(Br)c(Br)[nH]3)cc2s1 | pIC50 | < 4.00 |
| O=C(O)C(=O)Nc1ccc2nc(NC(=O)c3cc(Cl)c(Cl)[nH]3)sc2c1 | pIC50 | 6.29 |

Would you kindly look at the next entry?
Req: Could you share what pIC50 was measured for O=C(O)CCC(=O)Nc1ccc2nc(NC(=O)c3cc(Br)c(Br)[nH]3)sc2c1 , tested on DNA gyrase subunit B (Staphylococcus aureus)?
Resp: < 4.00
